Give measured efflux ratio at 120 min, 5 μM for each item. Keep answers brief.
system: MDR1; test: MDCK-MDR1 permeability assay (BBB penetration potential); type: in vitro ADME; settings: dog, MDCK-MDR1, pH 7.4, MDCK-MDR1: Efflux
Reply with just the number.

Given the compound Cc1nocc1-c1ccc(-c2ccc(O[C@H]3C[C@@H]4CCC[C@@H](N4)[C@H]3F)nn2)c(O)c1 (single isomer, unassigned) and test system MDR1, the measured efflux ratio at 120 min, 5 μM is 7

Given the compound Cc1ccc(-c2ccc(-c3ccc(O[C@H]4C[C@@H]5CCC[C@@H](N5)[C@H]4F)nn3)c(O)c2)nn1 (single isomer, unassigned) and test system MDR1, the measured efflux ratio at 120 min, 5 μM is 10

Given the compound Cn1cc(-c2cc(O)c(-c3ccc(O[C@@H]4C[C@H]5CCC[C@H](N5)[C@@H]4F)nn3)cn2)cn1 (single isomer, unassigned) and test system MDR1, the measured efflux ratio at 120 min, 5 μM is 68

Given the compound O=c1cc(-c2ccc(-c3ccc(O[C@@H]4C[C@H]5CCC[C@H](N5)[C@@H]4F)nn3)c(O)c2)ccn1CF (single isomer, unassigned) and test system MDR1, the measured efflux ratio at 120 min, 5 μM is 48

Given the compound CN(C)C(=O)c1cc2cc(O)c(-c3ccc(O[C@@H]4C[C@@]5(C)CCC[C@](C)(N5)[C@@H]4F)nn3)cc2o1 (single isomer, unassigned) and test system MDR1, the measured efflux ratio at 120 min, 5 μM is 16

Given the compound Cc1cc(-c2ccc(-c3ccc(O[C@H]4C[C@@H]5CCC[C@@H](N5)[C@H]4F)nn3)c(O)c2)cs1 (single isomer, unassigned) and test system MDR1, the measured efflux ratio at 120 min, 5 μM is 1

###

system: MDR1; experiment: MDCK-MDR1 permeability assay (BBB penetration potential); format: in vitro ADME; conditions: dog, MDCK-MDR1, pH 7.4, MDCK-MDR1: Papp B-A
property: Papp B→A at 120 min, 5 μM

Please fill in: Papp B→A at 120 min, 5 μM reported for COc1cc(-c2ccc(-c3ccc(O[C@@H]4C[C@@]5(C)CC[C@](C)(N5)[C@@H]4F)nn3)c(O)c2)cnn1 (single isomer, unassigned) [157-ENT1] = 35.7 ×10⁻⁶ cm/s

Please fill in: Papp B→A at 120 min, 5 μM reported for Cc1cc(-c2ccc(-c3ccc(O[C@H]4C[C@@H]5CCC[C@@H](N5)[C@H]4F)nn3)c(O)c2)cnn1 (single isomer, unassigned) [90-ENT2] = 64.6 ×10⁻⁶ cm/s

Please fill in: Papp B→A at 120 min, 5 μM reported for Cn1ccc2cc(O)c(-c3ccc(O[C@@H]4C[C@@]5(C)CC[C@](C)(N5)[C@@H]4F)nn3)cc2c1=O (single isomer, unassigned) [130-ENT2] = 49.6 ×10⁻⁶ cm/s

Please fill in: Papp B→A at 120 min, 5 μM reported for Oc1cc(-c2cn[nH]c2)ccc1-c1ccc(O[C@H]2C[C@@H]3CCC[C@@H](N3)[C@H]2F)nn1 (single isomer, unassigned) [40-ENT1] = 49.9 ×10⁻⁶ cm/s

Please fill in: Papp B→A at 120 min, 5 μM reported for Oc1cc(-c2cn[nH]c2)ccc1-c1ccc(O[C@H]2C[C@@H]3COC[C@@H](N3)[C@H]2F)nn1 (single isomer, unassigned) [123-ENT2] = 69.8 ×10⁻⁶ cm/s

Please fill in: Papp B→A at 120 min, 5 μM reported for Cc1ncc(-c2ccc(-c3ccc(O[C@H]4C[C@@H]5CCC[C@@H](N5)[C@H]4F)nn3)c(O)c2)o1 (single isomer, unassigned) [93-ENT2] = 41.5 ×10⁻⁶ cm/s
